B1: ZNF8 (parent)
chain: KPYTCSVCGKSFSRTTCLFLHLRT

variants of: B1; assay: protein stability index of a GFP-peptide fusion (GPS, HEK-293T) (PSI 1-6); higher = more stable; details: c terminus: a fixed tail appended;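 also: lentivirally expressed fusions sorted by FACS into six bins by GFP to DsRed ratio, PSI derived from sequencing read proportions per bin multiplied by bin number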
Please go through the items and note down their protein stability index.
One number for each entry.

Example results:
H21S    2.04
L18H    1.96

Now for the variant whose protein stability index we want.
Query :: # protein stability index lookup, item `G9Y`
Result :: 1.97
